Provide the recorded log10 Henry constant (atm·m³/mol) for the entries that follow.
Give bare numbers.

CCCCNCCCC :: -4.05
CC(=O)c1ccccc1 :: -4.98
O=C(F)C(F)(F)F :: -3.48
Cc1ccccn1 :: -5
Clc1ccc(Cl)cc1 :: -2.62

The following compounds each have a reported value; give each one's log10 Henry constant (atm·m³/mol).
1. CC(C)CCBr
2. Cc1ccnc(C)c1
3. CCCNCCC
4. ClC1=C(Cl)C2(Cl)C3C(Cl)C=CC3C1(Cl)C2(Cl)Cl (centres undefined)
5. CCCCCCCC(=O)OC
6. CCCOCCC
7. C=CC(C)=O

1. -1.46
2. -5.17
3. -4.29
4. -3.53
5. -3.11
6. -2.66
7. -4.33

The following compounds each have a reported value; give each one's log10 Henry constant (atm·m³/mol).
1. CCCCCCCC(C)=O
2. CCCCC(CC)COP(=O)(Oc1ccccc1)Oc1ccccc1 (centres undefined)
3. CCCCCN
4. CCCCCC=CC=O

-3.44
-4.27
-4.61
-4.13
